Biological target: human TGR5 (Homo sapiens, UniProt Q8TDU6)
Construct: expressed in transfected cells; host or cells: HEK293
Sequence (Q8TDU6 1-330): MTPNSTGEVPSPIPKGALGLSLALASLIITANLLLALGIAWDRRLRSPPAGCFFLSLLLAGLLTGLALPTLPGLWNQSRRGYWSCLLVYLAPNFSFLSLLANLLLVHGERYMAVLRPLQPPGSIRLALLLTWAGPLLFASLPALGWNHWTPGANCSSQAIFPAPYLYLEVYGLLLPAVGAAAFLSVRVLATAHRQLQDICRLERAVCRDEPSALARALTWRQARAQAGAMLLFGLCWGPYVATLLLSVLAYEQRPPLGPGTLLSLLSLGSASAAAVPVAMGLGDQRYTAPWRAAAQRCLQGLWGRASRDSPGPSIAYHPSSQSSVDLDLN
Assay: Cell-based TGR5 assay (cAMP generation, HTRF)
Conditions: HEK293 cells stably transfected with human TGR5; cAMP by HTRF; 30 minutes at 37° C.; read-out: pEC50 Human TGR5 (converted)
MEASUREMENT TYPE: EC50

Examples with their reported EC50 follow.
Clc1ccc(Cl)c(CNC2(c3cnccc3-c3ccccc3)CC2)c1; 126 to 1000 nM
CC(C)C(=O)N(CCCCc1cc(Cl)c(COC2(c3cnccc3-c3ccccc3OC3CC3)CC2)cc1Cl)C[C@H](O)[C@@H](O)[C@H](O)[C@H](O)CO; 126 to 1000 nM
Cc1ccc(C(C)CCCCNC(=O)NC[C@H](O)[C@@H](O)[C@H](O)[C@H](O)CO)cc1COC1(c2cnccc2-c2ccccc2OC2CC2)CC1 (stereo partly drawn); < 100 nM
Cc1ccc(SCCCCN(CCCCO)C(=O)[C@@H](O)[C@@H](O)[C@H](O)[C@@H](O)CO)cc1COC1(c2cnccc2-c2ccccc2OC2CC2)CC1; 126 to 1000 nM
Cc1ccc(C(C)CCCN(CCS(C)(=O)=O)C(=O)[C@@H](O)[C@@H](O)[C@H](O)[C@@H](O)CO)cc1CNC1(c2cnccc2-c2ccccc2OC2CC2)CC1 (stereo partly drawn); < 100 nM
CC(C)N(CCCCc1cc(Cl)c(COC2(c3cnccc3-c3ccccc3OC3CC3)CC2)cc1Cl)C(=O)[C@@H](O)[C@@H](O)[C@H](O)[C@@H](O)CO (stereo in doubt); < 100 nM
O=C(NCCCCNS(=O)(=O)c1ccc(Cl)c(COC2(c3cnccc3-c3ccccc3OC3CC3)CC2)c1)N[C@@H](CO)[C@@H](O)[C@H](O)[C@H](O)CO (stereo in doubt); < 100 nM
Clc1ccc(Cl)c(COC2(c3cnccc3-c3ccccc3OC3CC3)CC2)c1; < 100 nM
Cc1ccc(S(=O)(=O)N(C)CCCCNC(=O)NC[C@H](O)[C@@H](O)[C@H](O)[C@H](O)CO)cc1CNC1(c2cnccc2-c2ccccc2OC2CC2)CC1; < 100 nM
CC(CCCCNC(=O)N[C@@H](CO)[C@@H](O)[C@H](O)[C@H](O)CO)c1ccc(Cl)c(CNC2(c3cnccc3-c3ccccc3OC3CC3)CC2)c1 (stereo partly drawn); < 100 nM

Endpoint output: EC50 of COCCN(CCCCCNC(=O)NC[C@H](O)[C@@H](O)[C@H](O)[C@H](O)CO)S(=O)(=O)c1ccc(Cl)c(COC2(c3cnccc3-c3ccccc3OC3CC3)CC2)c1 . Value?
< 100 nM

Look up EC50: O=C([C@@H](O)[C@@H](O)[C@H](O)[C@@H](O)CO)N(CCCCSc1ccc(Cl)c(CNC2(c3cnccc3-c3ccccc3OC3CC3)CC2)c1)CC1CCOCC1
126 to 1000 nM

====

Molecular target: human TGR5 (Homo sapiens, UniProt Q8TDU6)
Construct: expressed in transfected cells; host or cells: HEK293
Sequence (Q8TDU6 1-330): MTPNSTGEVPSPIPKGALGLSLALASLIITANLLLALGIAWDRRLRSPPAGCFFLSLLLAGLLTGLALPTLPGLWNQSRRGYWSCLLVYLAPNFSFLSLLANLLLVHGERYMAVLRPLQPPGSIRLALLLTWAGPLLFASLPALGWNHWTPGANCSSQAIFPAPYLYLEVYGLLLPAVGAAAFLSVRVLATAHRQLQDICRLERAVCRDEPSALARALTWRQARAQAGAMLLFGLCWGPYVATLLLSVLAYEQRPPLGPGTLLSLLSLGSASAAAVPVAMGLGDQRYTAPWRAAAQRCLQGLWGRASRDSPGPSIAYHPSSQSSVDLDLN
Assay: Cell-based TGR5 assay (cAMP generation, HTRF)
Conditions: HEK293 cells stably transfected with human TGR5; cAMP by HTRF; 30 minutes at 37° C.; read-out: pEC50 Human TGR5 (converted)
MEASUREMENT TYPE: EC50

Recorded results for 2 molecules are shown here.
O=C(CCCSc1ccc(Cl)c(CNC2(c3cnccc3-c3ccccc3OC3CC3)CC2)c1)NC[C@H](O)[C@@H](O)[C@H](O)[C@H](O)CO; < 100 nM
CNC(=O)CN(C[C@H](O)[C@@H](O)[C@H](O)[C@H](O)CO)C(=O)CCCC(C)c1ccc(Cl)c(CNC2(c3cnccc3-c3ccccc3OC3CC3)CC2)c1 (stereo partly drawn); < 100 nM

Pending molecule:
// EC50 lookup, key: Cc1ccc(CCCCC(=O)NC[C@H](O)[C@@H](O)[C@H](O)[C@H](O)CO)cc1COC1(c2cnccc2-c2ccccc2OC2CC2)CC1 (stereo in doubt)
< 100 nM

====

Listing: EC50 of selected compounds
Target: human TGR5 (Homo sapiens, UniProt Q8TDU6)
Construct: expressed in transfected cells; host or cells: HEK293
Sequence (Q8TDU6 1-330): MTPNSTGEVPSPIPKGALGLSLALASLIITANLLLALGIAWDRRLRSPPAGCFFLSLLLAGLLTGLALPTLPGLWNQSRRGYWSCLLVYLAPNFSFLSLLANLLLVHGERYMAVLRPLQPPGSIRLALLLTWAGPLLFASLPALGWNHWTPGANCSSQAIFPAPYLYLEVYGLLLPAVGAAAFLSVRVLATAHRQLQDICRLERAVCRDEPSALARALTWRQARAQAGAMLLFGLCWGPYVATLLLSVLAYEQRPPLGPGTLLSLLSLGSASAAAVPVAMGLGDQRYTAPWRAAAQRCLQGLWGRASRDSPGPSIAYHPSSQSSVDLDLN
Test: Cell-based TGR5 assay (cAMP generation, HTRF)
Conditions: HEK293 cells stably transfected with human TGR5; cAMP by HTRF; 30 minutes at 37° C.; read-out: pEC50 Human TGR5 (converted)

COCCN(CCCCNC(=O)N[C@@H](CO)[C@@H](O)[C@H](O)[C@H](O)CO)S(=O)(=O)c1ccc(Cl)c(COC2(c3cnccc3-c3ccccc3OC3CC3)CC2)c1; < 100 nM
O=C1NCCN1CCN(CCCSc1ccc(Cl)c(CNC2(c3cnccc3-c3ccccc3OC3CC3)CC2)c1)C(=O)[C@@H](O)[C@@H](O)[C@H](O)[C@@H](O)CO; 126 to 1000 nM
NC(=O)CCN(C[C@H](O)[C@@H](O)[C@H](O)[C@H](O)CO)C(=O)CCCSc1ccc(Cl)c(COC2(c3cnccc3-c3ccccc3OC3CC3)CC2)c1; 1260 to 10000 nM

Find the recorded EC50 belonging to NC(=O)CN(C[C@H](O)[C@@H](O)[C@H](O)[C@H](O)CO)C(=O)CCCCc1cc(Cl)c(COC2(c3cnccc3-c3ccccc3OC3CC3)CC2)cc1Cl (stereo in doubt) and report it.
< 100 nM

Would you mind telling me what EC50 value was observed for Cc1ccc(C(C)CCCCNC(=O)NC[C@H](O)[C@@H](O)[C@H](O)[C@H](O)CO)cc1CNC1(c2cnccc2-c2ccccc2OC2CC2)CC1 (some centres unmarked) ?
< 100 nM

====

target: human TGR5 (Homo sapiens, UniProt Q8TDU6); construct: expressed in transfected cells; host or cells: HEK293; experiment: Cell-based TGR5 assay (cAMP generation, HTRF); conditions: HEK293 cells stably transfected with human TGR5; cAMP by HTRF; 30 minutes at 37° C.; read-out: pEC50 Human TGR5 (converted)
MEASUREMENT TYPE: EC50

Observe how each entry below is paired with its result.
CC(CCCC(=O)O)c1ccc(Cl)c(CNC2(c3cnccc3-c3ccccc3OC3CC3)CC2)c1 (single isomer, unassigned) [Compound I-248]; < 100 nM
COCCN(CCCCc1cc(Cl)c(COC2(c3cnccc3-c3ccccc3OC3CC3)CC2)cc1C)C(=O)NC[C@H](O)[C@@H](O)[C@H](O)[C@H](O)CO [Compound I-116]; < 100 nM

Entry CC(CCCCN(CCS(C)(=O)=O)C(=O)[C@@H](O)[C@@H](O)[C@H](O)[C@@H](O)CO)c1ccc(Cl)c(CNC2(c3cnccc3-c3ccccc3OC3CC3)CC2)c1 (stereo partly drawn) [Compound I-291] , system human TGR5 (Homo sapiens, UniProt Q8TDU6): what EC50 was measured?
< 100 nM

This collection of values is drawn from patent US12084472B2.
